Where do these numbers come from? They come from PubChem BioAssay (NCI).

test system: UO-31 renal; assay: NCI-60 one-dose screen, 48 h (100 = growth as untreated, 0 = no growth, -100 = all killed); settings: 10 µM unless noted
This is part of a sample that, as a whole, favours compounds with a hit. Of some 83,000 tested, about 20% had one in any assay.
Assign 1 (yes) to entries whose growth meets or exceeds 80%; assign 0 (no) to the rest.

>>> assigned_label("CCCCCCCCNc1ncnc2c1ncn2Cc1nnc2c3ccccc3c(Cl)nn12")
"0 (no)"
>>> assigned_label("Oc1ccc(Cc2ccc(O)c3ncccc23)c2cccnc12")
"0 (no)"

## Task Given CC(C)=CCC[C@](C)(O)C1CC[C@]2(C)[C@@H]1CC[C@@H]1[C@@]3(C)CC/C(=N\OCCC#N)C(C)(C)[C@@H]3CC[C@]12C (some centres undefined) , state whether its growth is at least 80%.
## Result 0 (no)

## Task Given O=C1CCC(C(=O)N/N=C/c2ccc([N+](=O)[O-])cc2)N1 (centres undefined) , state whether its growth is at least 80%.
## Result 1 (yes)

## Task Given COC1CC(O)C2=C(CC3C(/C(C)=C\CC=C(C)C)CCC3(C)O2)C1=O (centres undefined) , state whether its growth is at least 80%.
## Result 1 (yes)

## Task Given C#Cc1cccc(Nc2nc(Cl)nc3cc(NC(=O)CCl)ccc23)c1 , state whether its growth is at least 80%.
## Result 0 (no)

## Task Given COC(=O)c1nc(-c2ccccc2)oc1S(=O)(=O)NCC(c1ccc(Cl)cc1)N1CCCCC1 (centres undefined) , state whether its growth is at least 80%.
## Result 0 (no)

## Task Given COc1ccc(-n2c(=O)n(-c3ccc(-c4nc5ccc(F)cc5s4)cc3)c(=O)c3cccnc32)cc1 , state whether its growth is at least 80%.
## Result 0 (no)

---

Tested on: MDA-MB-231 breast
Test: NCI-60 one-dose screen, 48 h (100 = growth as untreated, 0 = no growth, -100 = all killed)
Conditions: 10 µM unless noted
Description: Cells are grown in 96 well plates and exposed to the test compound for 48 hours. Compounds are tested at a single concentration, which is 10^-5 M for most compounds. The reported endpoint is percent growth (GI% or GIPRCNT), where numbers from 0 - 100% represent growth inhibition, and numbers from -100% - 0 represent cell death. For example, a value of 40 represents 60% growth inhibition. A value of 0 means no net growth occurred over the course of the experiment. […]
This is part of a sample that, as a whole, favours compounds with a hit. Of some 83,000 tested, about 20% had one in any assay.
reported.property: growth (%)
Please reply with the bare figure in % and do not write the unit itself.

Here is how some compounds turned out for growth.
>>> measured_result("COc1cc2nc3cc([N+](=O)[O-])ccc3c(NCCCNCCO)c2cc1OC")
-54.5
>>> measured_result("CC(=O)OCCOc1cc(Cl)c(Cl)cc1Cl")
94.3
>>> measured_result("CCCCCCCC/C=C\\CCCCCCCCOc1ccc(CC(=O)NCC[N+]2(C)CCCC2)cc1")
59.8
>>> measured_result("Cn1cc(-c2ccc3occ(-c4cccc(-c5ccncc5)c4)c3n2)cn1")
35.4

Please look at the following compound next.
## Task If you can, please state the reported growth value of CCOC(=O)c1c2c(n3ccc(NC(=O)CCN4CCCC4)cc13)C(=O)c1ncccc1C2=O .
## Result -71.2
